target-or-system: Eukaryotic translation initiation factor 4E/Eukaryotic translation initiation factor 4E-binding protein 1 (Homo sapiens, UniProt P06730+Q13541)
Sequence (P06730 whole entry): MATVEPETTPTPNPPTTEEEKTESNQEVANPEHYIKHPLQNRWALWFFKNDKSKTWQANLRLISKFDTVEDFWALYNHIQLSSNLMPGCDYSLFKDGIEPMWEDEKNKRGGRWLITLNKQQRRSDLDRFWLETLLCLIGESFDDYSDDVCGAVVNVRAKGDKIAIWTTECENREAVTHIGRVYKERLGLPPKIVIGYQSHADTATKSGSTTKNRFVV
Sequence (Q13541 whole entry): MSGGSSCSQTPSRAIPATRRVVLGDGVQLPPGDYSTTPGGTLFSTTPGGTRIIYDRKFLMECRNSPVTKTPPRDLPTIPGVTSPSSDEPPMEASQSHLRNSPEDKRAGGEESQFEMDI
experiment-summary: Inhibition of eIF4E-4E-BP1 (unknown origin) interaction by cat-ELCCA assay
Format: protein assay
experimental-conditions: read-out: EC50
Binary label based on EC50 with cut-off 300 µM: below gives true, not below gives false.

Here are 2 molecules together with their reported answers.
* O=C(O)c1cc2c(c3nc4c(O)cccc4nc13)O[C@@H]1[C@H](O)c3nc4cccc(O)c4nc3C[C@H]21 | true
* O=C(O)c1ccc(=O)c2nc3c4c(ccc3[nH]c1-2)[C@@H]1Cc2nc3cccc(O)c3nc2[C@H](O4)[C@H]1O | true

In: Given O=C(O)c1cc2c(c3nc4c(O)cccc4nc13)[C@@H]1Cc3nc4cccc(O)c4nc3[C@@H](O)[C@@H]1O2 , is recorded EC50 strictly lower than 300 µM?
Out: true

In: Input O=C(O)c1cc2c(c3nc4c(O)cccc4nc13)[C@@H]1Cc3nc4cccc(O)c4nc3[C@H](O2)[C@H]1O ; condition: EC50 strictly below 300 µM. Does it hold?
Out: true

In: Dear colleague, could you confirm whether EC50 of O=C(O)c1ccc(O)c2nc3c4c(ccc3nc12)[C@@H]1Cc2nc3cccc(O)c3nc2[C@H](O4)[C@H]1O falls below 300 µM? Thanks.
Out: false
